- assayed-target: Glutamate NMDA receptor
- assay-summary: Antagonist activity at NMDA receptor in Sprague-Dawley rat striatal synaptoneurosomes assessed as inhibition of NMDA/glycine-induced calcium flux by spectrofluorimetric analysis
reported-metric: IC50 (nM)
Numbers only, in nM.

Query: Quick check: IC50 on Glutamate NMDA receptor, item CN(C)c1cccc2c(S(=O)(=O)NCCCNC34CC5CC(CC(C5)C3)C4)cccc12 ?
Reply: 270

----------
- assayed-target: Glutamate NMDA receptor (Rattus norvegicus) (UniProt P35439+Q00959+Q00960+Q00961+Q62645+Q8VHN2+Q9R1M7)
- assay-summary: Antagonist activity at NMDA receptor in Sprague-Dawley rat striatal synaptoneurosomes assessed as inhibition of NMDA/glycine-induced calcium flux at 100 uM by spectrofluorimetric analysis relative to control
- Format: functional
Active and inactive are the calls of the source. The rule behind the calls is not given here.
reported-metric: inhibition

Observe how each entry below is paired with its result.
CNc1ccccc1C(=O)NC12CC3CC(CC(C3)C1)C2: inactive
NCCCNC12CC3CC(CC(C3)C1)C2: 9.01%
O=C(NCCCNC12CC3CC(CC(C3)C1)C2)c1n[nH]c2ccccc12: inactive
CN(C)c1cccc2c(S(=O)(=O)NC34CC5CC(CC(C5)C3)C4)cccc12: 21.9%

# batch size: 5; output inhibition per entry
1. OC12C3C4CC5C6C4C1C6C1(OCCCN21)C53 (stereo unspecified)
2. CNc1ccccc1C(=O)NCCCNC12CC3CC(CC(C3)C1)C2
3. O=[N+]([O-])c1ccc(NC23CC4CC(CC(C4)C2)C3)c([N+](=O)[O-])c1
4. O=C(OC12C3C4CC5C6C4C1C6C1(OCCCN12)C53)c1n[nH]c2ccccc12 (stereo unspecified)
5. O=C(NC12CC3CC(CC(C3)C1)C2)c1n[nH]c2ccccc12

Reply:
22.7%
12%
19.2%
13.6%
16%

Please state, for each entry, its recorded inhibition.
1. N#Cc1c2ccccc2cn1C12CC3CC(CC(C3)C1)C2
2. N#Cc1c2ccccc2cn1CCCNC12CC3CC(CC(C3)C1)C2

Reply:
1. 16%
2. 13.6%
